Data credit: paper PMC6943423

# System: human red blood cells
# assay overview: Hemolytic activity
# Format: cell-based
# test conditions: red cells of human, 1 h, 150
Square brackets hold non-standard residues; d marks the D form. Peptide text beside a SMILES is read from it. d1Nal = N[C@H](Cc1cccc2ccccc12)C(=O)O; dNle = CCCC[C@@H](N)C(=O)O
The reader will find reported %H (% Hemolysis at 150 µM) values listed item by item below.
# include the unit after the value

Consider the reported %H (% Hemolysis at 150 µM) for these molecules:
>  <molecule>
CCCC[C@@H](NC(=O)[C@@H](Cc1ccc(O)cc1)NC(=O)[C@@H](Cc1cccc2ccccc12)NC(=O)[C@@H](CCCCN)NC(=O)[C@@H](Cc1ccccc1)NC(=O)[C@@H](Cc1cccc2ccccc12)NC(=O)[C@@H](CCCCN)NC(=O)[C@H](N)CCCCN)C(N)=O [Compound 23, kk(1-nal)fk(1-nal)y(nle)-NH2] (H-[dK][dK][d1Nal][dF][dK][d1Nal][dY][dNle]-NH2; N-terminus assumed)

>  <assay result>
74%

$$$$
>  <molecule>
CCCC[C@@H](NC(=O)[C@@H](CCCCN)NC(=O)[C@@H](Cc1cccc2ccccc12)NC(=O)[C@@H](CCCCN)NC(=O)[C@@H](Cc1ccccc1)NC(=O)[C@@H](Cc1cccc2ccccc12)NC(=O)[C@@H](CCCCN)NC(=O)[C@H](N)CCCNC(=N)N)C(N)=O [Compound 33, rk(1-nal)fk(1-nal)k(nle)-NH2] (H-[dR][dK][d1Nal][dF][dK][d1Nal][dK][dNle]-NH2)

>  <assay result>
60%

$$$$

// next entry
What measured %H (% Hemolysis at 150 µM) is associated with CCCC[C@@H](NC(=O)[C@@H](CCCCN)NC(=O)[C@@H](Cc1cccc2ccccc12)NC(=O)[C@@H](CCCCN)NC(=O)[C@@H](Cc1ccccc1)NC(=O)[C@H](N)Cc1cccc2ccccc12)C(N)=O [Compound 28, (1-nal)fk(1-nal)k(nle)-NH2] (H-[d1Nal][dF][dK][d1Nal][dK][dNle]-NH2; N-terminus assumed) on human red blood cells?
62%

* * *

# Tested on: human red blood cells
# assay overview: Hemolytic activity
# Format: cell-based
# test conditions: red cells of human, 1 h, 150
# Protocol: The percentage of hemolysis at 150 μM was determined for all compounds as previously described. Briefly, two-fold serial dilutions (2.35 to 150 μM) of compounds in PBS were mixed with a 0.5% v/v suspension of fresh human red blood cells (RBC) in the same buffer. […] Absorbance at 414 nm was determined and normalised with respect to a negative (PBS, 0%) and positive (melittin, 100%) control.
Square brackets hold non-standard residues; d marks the D form. Peptide text beside a SMILES is read from it. d1Nal = N[C@H](Cc1cccc2ccccc12)C(=O)O; dNle = CCCC[C@@H](N)C(=O)O
measurement type: %H (% Hemolysis at 150 µM) (%)
Quick note: give the figure in %, leave out the unit.

>  <compound>
CCCC[C@@H](NC(=O)[C@@H](CCCCN)NC(=O)[C@@H](Cc1cccc2ccccc12)NC(=O)[C@@H](Cc1ccc(O)cc1)NC(=O)[C@@H](Cc1ccccc1)NC(=O)[C@@H](Cc1cccc2ccccc12)NC(=O)[C@@H](CCCCN)NC(=O)[C@H](N)CCCCN)C(N)=O [Compound 15, kk(1-nal)fy(1-nal)k(nle)-NH2] (H-[dK][dK][d1Nal][dF][dY][d1Nal][dK][dNle]-NH2; N-terminus assumed)

>  <%H (% Hemolysis at 150 µM) / %>
40

$$$$
>  <compound>
CCCC[C@@H](NC(=O)[C@@H](CCCNC(=N)N)NC(=O)[C@@H](Cc1cccc2ccccc12)NC(=O)[C@@H](CCCCN)NC(=O)[C@@H](Cc1ccccc1)NC(=O)[C@@H](Cc1cccc2ccccc12)NC(=O)[C@@H](CCCCN)NC(=O)[C@H](N)CCCCN)C(N)=O [Compound 36, kk(1-nal)fk(1-nal)r(nle)-NH2] (H-[dK][dK][d1Nal][dF][dK][d1Nal][dR][dNle]-NH2; N-terminus assumed)

>  <%H (% Hemolysis at 150 µM) / %>
51

$$$$
>  <compound>
CCCC[C@@H](NC(=O)[C@@H](C)NC(=O)[C@@H](Cc1cccc2ccccc12)NC(=O)[C@@H](CCCCN)NC(=O)[C@@H](Cc1ccccc1)NC(=O)[C@@H](Cc1cccc2ccccc12)NC(=O)[C@@H](CCCCN)NC(=O)[C@H](N)CCCCN)C(N)=O [Compound 7, kk(1-nal)fk(1-nal)a(nle)-NH2] (H-[dK][dK][d1Nal][dF][dK][d1Nal][dA][dNle]-NH2)

>  <%H (% Hemolysis at 150 µM) / %>
67

$$$$
>  <compound>
C[C@@H](NC(=O)[C@@H](CCCCN)NC(=O)[C@@H](Cc1cccc2ccccc12)NC(=O)[C@@H](CCCCN)NC(=O)[C@@H](Cc1ccccc1)NC(=O)[C@@H](Cc1cccc2ccccc12)NC(=O)[C@@H](CCCCN)NC(=O)[C@H](N)CCCCN)C(N)=O [Compound 8, kk(1-nal)fk(1-nal)ka-NH2] (HELM PEPTIDE1{[dK].[dK].[O=C([C@@H](Cc1cccc2ccccc12)N[*:1])[*:2]].[dF].[dK].[O=C([C@@H](Cc1cccc2ccccc12)N[*:1])[*:2]].[dK].[dA].[am]}$$$$V2.0; N-terminus assumed)

>  <%H (% Hemolysis at 150 µM) / %>
5

$$$$
>  <compound>
CCCC[C@@H](NC(=O)[C@@H](Cc1cccc2ccccc12)NC(=O)[C@@H](CCCCN)NC(=O)[C@@H](CCCCN)NC(=O)[C@@H](Cc1ccccc1)NC(=O)[C@@H](Cc1cccc2ccccc12)NC(=O)[C@@H](CCCCN)NC(=O)[C@H](N)CCCCN)C(N)=O [Compound 25, kk(1-nal)fkk(1-nal)(nle)-NH2] (H-[dK][dK][d1Nal][dF][dK][dK][d1Nal][dNle]-NH2)

>  <%H (% Hemolysis at 150 µM) / %>
50

$$$$
>  <compound>
CCCC[C@@H](NC(=O)[C@@H](CCCCN)NC(=O)[C@@H](Cc1cccc2ccccc12)NC(=O)[C@@H](CCCC)NC(=O)[C@@H](Cc1ccccc1)NC(=O)[C@@H](Cc1cccc2ccccc12)NC(=O)[C@@H](CCCCN)NC(=O)[C@H](N)CCCCN)C(N)=O [Compound 11, kk(1-nal)f(nle)(1-nal)k(nle)-NH2] (H-[dK][dK][d1Nal][dF][dNle][d1Nal][dK][dNle]-NH2; N-terminus assumed)

>  <%H (% Hemolysis at 150 µM) / %>
33

$$$$

Data request, read-out %H (% Hemolysis at 150 µM), for CCCC[C@@H](NC(=O)[C@@H](CCCCN)NC(=O)[C@@H](Cc1cccc2ccccc12)NC(=O)[C@H](NC(=O)[C@@H](Cc1ccccc1)NC(=O)[C@@H](Cc1cccc2ccccc12)NC(=O)[C@@H](CCCCN)NC(=O)[C@H](N)CCCCN)C(C)C)C(N)=O [Compound 16, kk(1-nal)fv(1-nal)k(nle)-NH2] (H-[dK][dK][d1Nal][dF][dV][d1Nal][dK][dNle]-NH2; N-terminus assumed)
54

Data request, read-out %H (% Hemolysis at 150 µM), for CCCC[C@@H](NC(=O)[C@@H](CCCCN)NC(=O)[C@@H](Cc1cccc2ccccc12)NC(=O)[C@@H](CCCCN)NC(=O)[C@@H](Cc1ccccc1)NC(=O)[C@@H](Cc1cccc2ccccc12)NC(=O)[C@@H](C)NC(=O)[C@H](N)CCCCN)C(N)=O [Compound 2, ka(1-nal)fk(1-nal)k(nle)-NH2] (H-[dK][dA][d1Nal][dF][dK][d1Nal][dK][dNle]-NH2)
59

Data request, read-out %H (% Hemolysis at 150 µM), for CCCC[C@@H](NC(=O)[C@@H](CCCCN)NC(=O)[C@@H](Cc1cccc2ccccc12)NC(=O)[C@@H](CCCCN)NC(=O)[C@@H](C)NC(=O)[C@@H](Cc1cccc2ccccc12)NC(=O)[C@@H](CCCCN)NC(=O)[C@H](N)CCCCN)C(N)=O [Compound 4, kk(1-nal)ak(1-nal)k(nle)-NH2] (H-[dK][dK][d1Nal][dA][dK][d1Nal][dK][dNle]-NH2; N-terminus assumed)
22

Data request, read-out %H (% Hemolysis at 150 µM), for CCCC[C@@H](NC(=O)[C@@H](CCCCN)NC(=O)[C@@H](Cc1cccc2ccccc12)NC(=O)[C@@H](CCCNC(=N)N)NC(=O)[C@@H](Cc1ccccc1)NC(=O)[C@@H](Cc1cccc2ccccc12)NC(=O)[C@@H](CCCCN)NC(=O)[C@H](N)CCCCN)C(N)=O [Compound 35, kk(1-nal)fr(1-nal)k(nle)-NH2] (H-[dK][dK][d1Nal][dF][dR][d1Nal][dK][dNle]-NH2; N-terminus assumed)
49
